IC50 data for UniProt P22303 follow.
Sequence (P22303 whole entry): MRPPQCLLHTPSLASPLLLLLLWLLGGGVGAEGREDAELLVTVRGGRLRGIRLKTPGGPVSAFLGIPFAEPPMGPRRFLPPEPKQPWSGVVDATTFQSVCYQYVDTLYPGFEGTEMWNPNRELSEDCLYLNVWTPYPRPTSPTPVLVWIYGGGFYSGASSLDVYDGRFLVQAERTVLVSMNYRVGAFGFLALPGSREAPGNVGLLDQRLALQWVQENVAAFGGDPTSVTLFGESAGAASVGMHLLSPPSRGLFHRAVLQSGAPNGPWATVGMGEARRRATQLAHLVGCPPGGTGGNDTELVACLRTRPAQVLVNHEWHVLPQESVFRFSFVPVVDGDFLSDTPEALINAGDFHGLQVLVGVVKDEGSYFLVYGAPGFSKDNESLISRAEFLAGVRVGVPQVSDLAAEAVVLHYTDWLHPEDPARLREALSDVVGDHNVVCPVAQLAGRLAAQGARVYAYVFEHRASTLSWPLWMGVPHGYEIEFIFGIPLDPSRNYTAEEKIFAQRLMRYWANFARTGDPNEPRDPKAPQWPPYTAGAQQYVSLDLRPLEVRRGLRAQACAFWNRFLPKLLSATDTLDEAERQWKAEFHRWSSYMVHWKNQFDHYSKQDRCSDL

{"SMILES_REPRESENTATION": "N#Cc1cc(C#N)c(NCCCC2CCN(Cc3ccccc3)CC2)nc1Cl", "IC50 (nM)": 54}
{"SMILES_REPRESENTATION": "N#Cc1cc(C#N)c(NCCC2CCN(Cc3ccccc3)CC2)nc1Cl", "IC50 (nM)": 310}
{"SMILES_REPRESENTATION": "N#Cc1c(Cl)nc(NC2CCN(Cc3ccccc3)CC2)c(C#N)c1-c1ccccc1", "IC50 (nM)": 9430}

* * *

# Species: Homo sapiens
# PROTOCOL_NOTES: Selectivity index, ratio of IC50 for human plasma BuChE to IC50 for purified human erythrocyte AChE

{"SMILES_REPRESENTATION": "N#Cc1cc(C#N)c(NCCCCC2CCN(Cc3ccccc3)CC2)nc1Cl", "Ratio IC50": 625}
{"SMILES_REPRESENTATION": "N#Cc1cc(C#N)c(NCCCC2CCN(Cc3ccccc3)CC2)nc1Cl", "Ratio IC50": 155}
{"SMILES_REPRESENTATION": "N#Cc1cc(C#N)c(NCCC2CCN(Cc3ccccc3)CC2)nc1Cl", "Ratio IC50": 1.52}
{"SMILES_REPRESENTATION": "N#Cc1c(Cl)nc(NCCCCC2CCN(Cc3ccccc3)CC2)c(C#N)c1-c1ccccc1", "Ratio IC50": 181}
